B1: ATL3 (parent)
chain: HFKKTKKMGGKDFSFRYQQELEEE

Variants of: B1
Experiment: protein stability index of a GFP-peptide fusion (GPS, HEK-293T) (PSI 1-6); higher = more stable;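 note: lentivirally expressed fusions sorted by FACS into six bins by GFP to DsRed ratio, PSI derived from sequencing read proportions per bin multiplied by bin number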
Details: c terminus: a fixed tail appended
readout_kind: protein stability index
# print the numeric value only

Previously resolved entries follow.
residue_codes	protein stability index
HFKKTKKHGGKDFSFRYQQELEEE	2.29
HFKKTKKMGGKDFSMRYQQELEEE	2.39
HFKKTKKMGLKDFSFRYQQELEEE	2.07
HFKKTKKMGGKDFSFRYQQHLEEE	3.98

Look up protein stability index: HFKKTNKMGGKDFSFRYQQELEEE 2.15

Look up protein stability index: HFKKTKKMGGKDFSFRNQQELEEE 5.28

Look up protein stability index: HFKKTKKMGGKDFSFCYQQELEEE 3.28

Look up protein stability index: HFKKTKKMGGKDFSIRYQQELEEE 1.42

Look up protein stability index: HFKKTKKMGGKPFSFRYQQELEEE 1.99

Look up protein stability index: HFKKTKKMGGTDFSFRYQQELEEE 2.22

Look up protein stability index: HFKKTKKMGGKDFSFRYQQELENE 2.67

Look up protein stability index: HFKKTKKMGGKDVSFRYQQELEEE 4.96

Look up protein stability index: HFKATKKMGGKDFSFRYQQELEEE 2.72

Look up protein stability index: HFKKTKKMGCKDFSFRYQQELEEE 1.56

Look up protein stability index: HFKKTKKMGGKDFSFRYQQELKEE 3.18

Look up protein stability index: HFKKTKKMGGKDFSFRYQQELEGE 1.88

Look up protein stability index: HFKKTAKMGGKDFSFRYQQELEEE 2.4

Look up protein stability index: HFKKTKKMWGKDFSFRYQQELEEE 1.88

Look up protein stability index: HFKKTKKMGGKDFSFRYQHELEEE 2.38

Look up protein stability index: HFKKWKKMGGKDFSFRYQQELEEE 3.29

Look up protein stability index: HFKKHKKMGGKDFSFRYQQELEEE 1.83

Look up protein stability index: HFKKTKKMGGKDFSFRYQQEYEEE 1.4
